Molecular target: Polyadenylate-binding protein 1 (Homo sapiens, UniProt P11940)
Sequence (P11940 whole entry, the tested form may be a part): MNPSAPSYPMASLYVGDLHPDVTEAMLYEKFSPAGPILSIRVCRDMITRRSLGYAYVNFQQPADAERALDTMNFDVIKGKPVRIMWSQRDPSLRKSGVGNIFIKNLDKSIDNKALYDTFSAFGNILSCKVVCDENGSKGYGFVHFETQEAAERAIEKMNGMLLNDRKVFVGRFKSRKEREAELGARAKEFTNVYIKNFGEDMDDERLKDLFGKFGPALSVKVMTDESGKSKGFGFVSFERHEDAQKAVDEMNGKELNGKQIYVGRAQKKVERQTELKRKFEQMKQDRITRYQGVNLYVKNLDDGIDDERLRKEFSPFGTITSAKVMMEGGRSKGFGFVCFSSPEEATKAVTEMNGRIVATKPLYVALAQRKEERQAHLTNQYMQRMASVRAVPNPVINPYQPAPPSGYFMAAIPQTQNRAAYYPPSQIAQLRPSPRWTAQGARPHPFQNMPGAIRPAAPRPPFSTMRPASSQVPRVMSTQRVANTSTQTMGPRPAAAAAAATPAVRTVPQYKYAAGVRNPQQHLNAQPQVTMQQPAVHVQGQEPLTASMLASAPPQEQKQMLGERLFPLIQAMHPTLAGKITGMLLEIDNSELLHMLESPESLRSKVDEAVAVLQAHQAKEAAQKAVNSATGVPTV
Experiment: MLLE domain peptide-binding blockers, IC50 – biochemical, fluorescence polarization, FITC-PAM2 peptide, dose response (AID 602259)
Type: functional
Details: read-out: IC50_Mean
Calls of active or inactive are those of the source.
Measured IC50 accompanies every entry in the list below.

compound | IC50
O=C(NC(=S)Nc1ccc2c(c1)OCCO2)c1ccccc1 | > 66 µM (inactive)
CCc1c(C)sc(NC(=O)c2ccco2)c1C(=O)N1CCOCC1 | > 66 µM (inactive)
CC(C)(C)n1nc2c(c1NC(=O)c1cc3ccccc3o1)CSC2 | > 66 µM (inactive)
CC(=O)Nc1ccc(S(=O)(=O)NC(C)C(=O)NC(C)c2ccccc2)cc1 (stereo unspecified) | > 66 µM (inactive)
O=C1c2ccccc2-c2cccc3cccc1c23 | 34 µM (inactive)
Cc1cc(O)ccc1NC(=S)NC(=O)c1cncc(Br)c1 | > 66 µM (inactive)

###

Molecular target: Ubiquitin-conjugating enzyme E2 N (Homo sapiens, UniProt P61088);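 note: Dose-response confirmation in a TR-FRET assay detecting UBC13-driven polyubiquitin chain formation, inhibition measured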
Sequence (P61088 whole entry): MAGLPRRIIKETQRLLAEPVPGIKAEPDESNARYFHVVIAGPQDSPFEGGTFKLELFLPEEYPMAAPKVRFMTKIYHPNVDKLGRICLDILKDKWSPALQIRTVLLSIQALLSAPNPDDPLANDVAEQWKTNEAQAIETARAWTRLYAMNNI
Format: functional
Activity calls are given as the source filed them.
Outcome codes: label 1 (active), label 0 (inactive)

compound | class-name
Cc1cccc2c1c(/N=N/C(=N)S)c(O)n2C1OC(CO)C(O)C(O)C1O (stereo unspecified) | label 1
CCC(=O)NC(c1cc(Cl)c2ccccc2c1O)C1CC1 (stereo unspecified) | label 0
COc1ccc(Nc2cc(Nc3cc(OC)c(OC)c(OC)c3)ncn2)cc1 | label 0
Cc1ccc2c(c1)c(/N=N/C(=N)S)c(O)n2Cc1ccccc1 | label 0
Cc1ccccc1CNC(=O)CCCC(=O)n1nc(C)c2ccccc21 | label 1
CC(C)CC(C(=O)NC(C)(C)C)N(CC1CCCO1)C(=O)c1snc(C(N)=O)c1N (stereo unspecified) | label 1

###

Measured EC50 accompanies every entry in the list below.
Target: Protein RecA (Mycobacterium tuberculosis, UniProt P9WHJ3)
Sequence (P9WHJ3 whole entry): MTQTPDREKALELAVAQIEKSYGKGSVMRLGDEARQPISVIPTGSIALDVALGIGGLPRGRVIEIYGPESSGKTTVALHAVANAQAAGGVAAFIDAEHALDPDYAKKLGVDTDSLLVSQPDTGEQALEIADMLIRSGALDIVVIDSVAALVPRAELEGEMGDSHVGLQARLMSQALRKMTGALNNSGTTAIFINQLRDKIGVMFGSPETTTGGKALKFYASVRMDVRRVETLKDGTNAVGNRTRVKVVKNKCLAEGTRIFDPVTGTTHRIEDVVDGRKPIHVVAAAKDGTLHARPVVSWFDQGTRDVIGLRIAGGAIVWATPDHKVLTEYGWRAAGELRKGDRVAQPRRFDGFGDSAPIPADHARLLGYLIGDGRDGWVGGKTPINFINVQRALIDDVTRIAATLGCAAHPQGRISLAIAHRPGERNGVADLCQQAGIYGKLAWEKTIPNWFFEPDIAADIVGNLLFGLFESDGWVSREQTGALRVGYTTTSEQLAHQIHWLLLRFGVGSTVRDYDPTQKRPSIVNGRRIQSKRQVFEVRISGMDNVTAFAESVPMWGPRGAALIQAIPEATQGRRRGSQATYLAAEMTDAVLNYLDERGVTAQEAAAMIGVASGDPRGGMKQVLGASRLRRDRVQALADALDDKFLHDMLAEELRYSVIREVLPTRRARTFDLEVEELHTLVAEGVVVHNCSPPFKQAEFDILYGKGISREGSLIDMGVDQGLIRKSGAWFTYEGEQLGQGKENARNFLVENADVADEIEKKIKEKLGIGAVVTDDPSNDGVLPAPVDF
Test: Fluorescence Cell-Free Homogeneous Dose Retest to Identify Inhibitors of RecA-Intein Splicing Activity. [Related pubchem assays (depositor defined):AID2097, AID2223, AID489010, AID492950]
Assay type: functional
Active and inactive are the calls of the source.

compound | EC50
CCOC(=O)N1C(=O)[C@@](c2ccc(Cl)cc2)(C(C)C)N1C(=O)OCC | 16.2 µM (active)
O=C1CC(c2ccccc2)=NN1c1ccc([N+](=O)[O-])cc1 | 4.05 µM (active)
Cc1cccc(C(=O)c2cnc3ccccc3c2-c2ccccc2)c1 | 22.8 µM (active)
Cc1nc2ccccc2c2c1C(=O)N(c1cccc(C(=O)O)c1)C2=O | 17 µM (active)
O=C(CCCN1C(=O)/C(=C/c2ccccc2)SC1=S)Nc1ccc(O)cc1 | > 380 µM (inactive)
CC(C)CS(=O)(=O)C1=NSC2=NC(=O)/C(=C\c3ccc(OC(=O)c4ccco4)cc3)C(=N)N21 | 13.8 µM (active)
O=c1c(Cl)c(Cl)cnn1Cc1nnc(-c2ccc(Cl)cc2)o1 | 2.95 µM (active)
Cc1cc(C)c2c(c1)-c1c(ssc1=S)C(C)(C)N2C(=O)CSc1nncn1C | 8.17 µM (active)
CCc1n[nH]c2c1C1(CCN(C(=O)c3ccccc3)CC1)C(C#N)=C(N)O2 | 4.3 µM (active)
CCOC(=O)c1cnc(N)nc1C(F)(F)F | > 380 µM (inactive)
CCOC(=O)c1ccc(-n2[nH]c(-c3ccccc3)cc2=O)cc1 | 2.25 µM (active)
O=C1c2ccccc2-c2onc3ccc(N4CCCC4)c1c23 | 0.606 µM (active)
CC(Oc1ccc(F)cc1)C(=O)Oc1ccc(N(C)S(=O)(=O)c2ccccc2)cc1 (stereo unspecified) | 58.5 µM (active)
CCOC(=O)C1CCN(Cc2cc(C(C)C)c(O)c(C(C)C)c2)CC1 | > 380 µM (inactive)
NC1=C2C(=O)c3ccccc3C(=O)C2=C(N)CC1 | 3.57 µM (active)
CC(C)c1n[nH]c2c1C1(CCN(Cc3ccccc3)CC1)C(C#N)=C(N)O2 | 1.16 µM (active)
